# test.target: Poly [ADP-ribose] polymerase 1 (Homo sapiens, UniProt P09874)
# Sequence (P09874 whole entry): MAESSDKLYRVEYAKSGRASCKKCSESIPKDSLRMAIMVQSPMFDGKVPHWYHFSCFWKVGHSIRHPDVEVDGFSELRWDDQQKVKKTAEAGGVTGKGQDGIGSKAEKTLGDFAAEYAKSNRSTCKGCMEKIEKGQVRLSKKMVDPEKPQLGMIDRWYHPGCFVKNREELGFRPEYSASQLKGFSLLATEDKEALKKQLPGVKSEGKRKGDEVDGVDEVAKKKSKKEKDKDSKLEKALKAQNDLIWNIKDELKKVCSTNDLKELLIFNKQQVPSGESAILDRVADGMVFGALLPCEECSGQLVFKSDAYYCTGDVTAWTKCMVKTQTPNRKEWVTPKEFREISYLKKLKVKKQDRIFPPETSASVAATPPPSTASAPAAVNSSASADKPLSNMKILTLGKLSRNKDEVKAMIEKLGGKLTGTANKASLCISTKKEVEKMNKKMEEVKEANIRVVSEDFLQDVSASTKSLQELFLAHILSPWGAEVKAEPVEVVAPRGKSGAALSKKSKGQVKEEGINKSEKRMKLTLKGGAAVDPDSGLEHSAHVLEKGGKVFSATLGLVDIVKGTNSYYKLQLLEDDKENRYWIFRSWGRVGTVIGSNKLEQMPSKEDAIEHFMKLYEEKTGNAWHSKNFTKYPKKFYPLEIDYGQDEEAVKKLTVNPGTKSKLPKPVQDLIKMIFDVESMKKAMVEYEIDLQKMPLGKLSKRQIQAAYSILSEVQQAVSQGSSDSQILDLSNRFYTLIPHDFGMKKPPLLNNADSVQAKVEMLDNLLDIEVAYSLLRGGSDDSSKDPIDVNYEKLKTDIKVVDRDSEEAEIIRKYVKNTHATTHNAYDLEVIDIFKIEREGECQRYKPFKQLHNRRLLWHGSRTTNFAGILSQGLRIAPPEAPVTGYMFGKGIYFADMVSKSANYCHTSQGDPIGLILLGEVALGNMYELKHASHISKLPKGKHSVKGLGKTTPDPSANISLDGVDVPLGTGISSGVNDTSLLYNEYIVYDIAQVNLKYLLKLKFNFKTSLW
# procedure.summary: Inhibition of PARP1 (unknown origin)
parameter.measured: IC50 (µM)
Enter your answer as a number in µM; do not include the unit.

Entry "Cc1cccc2c(=O)[nH]c(CCC(=O)Nc3ccc(C(=O)Nc4cccc5cccnc45)cc3)nc12" , system Poly [ADP-ribose] polymerase 1 (Homo sapiens, UniProt P09874): what IC50 was measured?
6.5

---

# test.target: Poly [ADP-ribose] polymerase tankyrase-2 (Homo sapiens, UniProt Q9H2K2)
# Sequence (Q9H2K2 whole entry, the tested form may be a part): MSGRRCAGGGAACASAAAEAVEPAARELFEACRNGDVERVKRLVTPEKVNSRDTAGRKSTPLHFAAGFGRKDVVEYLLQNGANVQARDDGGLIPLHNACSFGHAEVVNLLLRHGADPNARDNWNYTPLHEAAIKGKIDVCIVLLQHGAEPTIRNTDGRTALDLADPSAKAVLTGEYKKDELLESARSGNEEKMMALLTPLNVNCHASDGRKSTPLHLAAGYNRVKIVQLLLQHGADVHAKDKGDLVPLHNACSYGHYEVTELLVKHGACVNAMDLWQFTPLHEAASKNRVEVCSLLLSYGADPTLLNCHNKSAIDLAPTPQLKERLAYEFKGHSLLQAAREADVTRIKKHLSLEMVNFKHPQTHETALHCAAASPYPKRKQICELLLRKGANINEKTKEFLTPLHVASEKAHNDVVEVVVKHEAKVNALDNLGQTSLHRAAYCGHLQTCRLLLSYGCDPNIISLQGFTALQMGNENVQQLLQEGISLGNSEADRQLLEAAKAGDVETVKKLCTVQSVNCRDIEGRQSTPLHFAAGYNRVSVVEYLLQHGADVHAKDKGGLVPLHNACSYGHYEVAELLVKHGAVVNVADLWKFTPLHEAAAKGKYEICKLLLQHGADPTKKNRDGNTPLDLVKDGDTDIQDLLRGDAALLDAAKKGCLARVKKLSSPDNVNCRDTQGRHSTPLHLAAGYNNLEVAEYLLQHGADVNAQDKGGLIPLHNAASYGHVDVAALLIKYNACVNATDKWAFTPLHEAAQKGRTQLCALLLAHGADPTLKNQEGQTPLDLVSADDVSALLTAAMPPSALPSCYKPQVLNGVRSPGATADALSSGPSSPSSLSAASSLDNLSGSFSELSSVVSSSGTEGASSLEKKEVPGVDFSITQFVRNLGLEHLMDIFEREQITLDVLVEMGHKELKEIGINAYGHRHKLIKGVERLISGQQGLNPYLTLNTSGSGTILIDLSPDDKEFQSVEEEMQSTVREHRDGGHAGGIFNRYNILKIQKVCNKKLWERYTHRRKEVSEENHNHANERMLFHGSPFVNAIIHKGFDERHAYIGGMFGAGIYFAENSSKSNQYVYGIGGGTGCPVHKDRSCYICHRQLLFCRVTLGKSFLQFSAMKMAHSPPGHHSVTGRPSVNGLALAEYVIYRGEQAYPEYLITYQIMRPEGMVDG
# procedure.summary: Inhibition of recombinant human N-terminal His-GST-tagged TNKS2 (849 to 1166 residues) expressed in baculovirus infected Sf9 cells using biotinylated NAD+ as substrate measured after 2 hrs
pIC50: −log10 of the molar value.
pIC50 for assorted molecules

Cc1cccc2c(=O)[nH]c(CCC(=O)O)nc12 ... < 4.00

Suppose we examine the molecule "O=C(O)CCc1nc(O)c2ccccc2n1" ; what pIC50 value has been reported?
< 4.00

---

# test.target: Protein mono-ADP-ribosyltransferase PARP3 (Homo sapiens, UniProt Q9Y6F1)
# Sequence (Q9Y6F1 whole entry): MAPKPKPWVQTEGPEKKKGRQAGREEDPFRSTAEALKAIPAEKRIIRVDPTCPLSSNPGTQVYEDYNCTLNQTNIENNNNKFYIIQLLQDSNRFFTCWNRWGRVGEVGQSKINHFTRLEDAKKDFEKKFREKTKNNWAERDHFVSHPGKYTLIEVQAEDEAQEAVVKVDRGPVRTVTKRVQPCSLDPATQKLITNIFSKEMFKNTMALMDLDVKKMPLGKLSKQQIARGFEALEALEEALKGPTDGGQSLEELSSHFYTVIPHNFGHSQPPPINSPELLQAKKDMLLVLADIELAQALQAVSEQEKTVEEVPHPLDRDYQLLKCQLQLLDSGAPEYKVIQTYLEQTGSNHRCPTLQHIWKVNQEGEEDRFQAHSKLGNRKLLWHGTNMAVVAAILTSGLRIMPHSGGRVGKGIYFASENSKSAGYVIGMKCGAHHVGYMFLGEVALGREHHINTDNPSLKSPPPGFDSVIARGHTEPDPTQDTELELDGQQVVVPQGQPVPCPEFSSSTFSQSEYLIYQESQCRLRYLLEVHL
parameter.measured: IC50 (µM)
Hi! Could you send only the number? It should be in µM, unit omitted.

Could you share what IC50 was measured for "O=C(CCc1nc2ccccc2c(=O)[nH]1)Nc1ccc(C(=O)Nc2cccc3cccnc23)cc1" , tested on Protein mono-ADP-ribosyltransferase PARP3 (Homo sapiens, UniProt Q9Y6F1)?
40

---

# test.target: Poly [ADP-ribose] polymerase 1 (Homo sapiens)
# procedure.summary: Inhibition of full length recombinant human N-terminal GST-tagged PARP1 expressed in Baculovirus infected Sf9 cells using TACS-Sapphire as substrate measured after 1 hr by colorimetric assay
# assay.conditions: read-out: IC50
IC50 reference
Answer format: numeric, µM implied, no suffix.

Illustrative cases are given below, each with its answer.
Cc1cccc2c(=O)[nH]c(CCC(=O)Nc3ccc(C(=O)Nc4cccc5cccnc45)cc3)nc12 ... 6.5
O=C(CCc1nc2ccccc2c(=O)[nH]1)Nc1ccc(C(=O)Nc2cccc3cccnc23)cc1 ... 8.2
Cc1cccc2c(=O)[nH]c(CCC(=O)O)nc12 ... 1

Field request: IC50 | item: "O=C(O)CCc1nc(O)c2ccccc2n1"
6.7

---

Quick note: these are IC50 numbers for system: Protein mono-ADP-ribosyltransferase PARP15 (Homo sapiens)
Sequence (Q460N3 whole entry): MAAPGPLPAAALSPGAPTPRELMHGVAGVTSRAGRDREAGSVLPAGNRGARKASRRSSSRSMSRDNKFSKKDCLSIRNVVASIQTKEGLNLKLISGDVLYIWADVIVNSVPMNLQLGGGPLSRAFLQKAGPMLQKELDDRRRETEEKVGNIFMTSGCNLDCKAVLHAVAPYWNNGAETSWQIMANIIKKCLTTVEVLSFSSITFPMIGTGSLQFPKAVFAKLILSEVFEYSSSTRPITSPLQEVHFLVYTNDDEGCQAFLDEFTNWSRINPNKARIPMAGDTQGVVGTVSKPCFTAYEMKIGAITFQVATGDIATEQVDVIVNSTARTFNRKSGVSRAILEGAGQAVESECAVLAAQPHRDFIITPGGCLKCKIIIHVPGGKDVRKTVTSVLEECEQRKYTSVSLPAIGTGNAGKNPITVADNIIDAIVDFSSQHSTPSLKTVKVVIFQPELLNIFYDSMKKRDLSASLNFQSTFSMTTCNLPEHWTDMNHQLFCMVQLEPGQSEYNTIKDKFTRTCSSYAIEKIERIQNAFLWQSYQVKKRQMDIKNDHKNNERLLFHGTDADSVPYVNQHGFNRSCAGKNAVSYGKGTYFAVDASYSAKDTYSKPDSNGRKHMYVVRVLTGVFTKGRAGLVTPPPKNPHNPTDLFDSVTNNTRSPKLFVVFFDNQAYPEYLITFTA

O=C(CCc1nc2ccccc2c(=O)[nH]1)Nc1ccc(C(=O)Nc2cccc3cccnc23)cc1 ... > 100 µM

Switching to the query record.
So what's the measured IC50 for this one? "Cc1cccc2c(=O)[nH]c(CCC(=O)Nc3ccc(C(=O)Nc4cccc5cccnc45)cc3)nc12"
> 100 µM

---

# test.target: Protein mono-ADP-ribosyltransferase PARP10 (Homo sapiens, UniProt Q53GL7)
parameter.measured: IC50

O=C(CCc1nc2ccccc2c(=O)[nH]1)Nc1ccc(C(=O)Nc2cccc3cccnc23)cc1 ... > 100 µM

Kindly review the next compound as well.
# IC50 lookup, item "Cc1cccc2c(=O)[nH]c(CCC(=O)Nc3ccc(C(=O)Nc4cccc5cccnc45)cc3)nc12"
> 100 µM

---

# test.target: UniProtKB O95271
# Sequence (O95271 whole entry, the tested form may be a part): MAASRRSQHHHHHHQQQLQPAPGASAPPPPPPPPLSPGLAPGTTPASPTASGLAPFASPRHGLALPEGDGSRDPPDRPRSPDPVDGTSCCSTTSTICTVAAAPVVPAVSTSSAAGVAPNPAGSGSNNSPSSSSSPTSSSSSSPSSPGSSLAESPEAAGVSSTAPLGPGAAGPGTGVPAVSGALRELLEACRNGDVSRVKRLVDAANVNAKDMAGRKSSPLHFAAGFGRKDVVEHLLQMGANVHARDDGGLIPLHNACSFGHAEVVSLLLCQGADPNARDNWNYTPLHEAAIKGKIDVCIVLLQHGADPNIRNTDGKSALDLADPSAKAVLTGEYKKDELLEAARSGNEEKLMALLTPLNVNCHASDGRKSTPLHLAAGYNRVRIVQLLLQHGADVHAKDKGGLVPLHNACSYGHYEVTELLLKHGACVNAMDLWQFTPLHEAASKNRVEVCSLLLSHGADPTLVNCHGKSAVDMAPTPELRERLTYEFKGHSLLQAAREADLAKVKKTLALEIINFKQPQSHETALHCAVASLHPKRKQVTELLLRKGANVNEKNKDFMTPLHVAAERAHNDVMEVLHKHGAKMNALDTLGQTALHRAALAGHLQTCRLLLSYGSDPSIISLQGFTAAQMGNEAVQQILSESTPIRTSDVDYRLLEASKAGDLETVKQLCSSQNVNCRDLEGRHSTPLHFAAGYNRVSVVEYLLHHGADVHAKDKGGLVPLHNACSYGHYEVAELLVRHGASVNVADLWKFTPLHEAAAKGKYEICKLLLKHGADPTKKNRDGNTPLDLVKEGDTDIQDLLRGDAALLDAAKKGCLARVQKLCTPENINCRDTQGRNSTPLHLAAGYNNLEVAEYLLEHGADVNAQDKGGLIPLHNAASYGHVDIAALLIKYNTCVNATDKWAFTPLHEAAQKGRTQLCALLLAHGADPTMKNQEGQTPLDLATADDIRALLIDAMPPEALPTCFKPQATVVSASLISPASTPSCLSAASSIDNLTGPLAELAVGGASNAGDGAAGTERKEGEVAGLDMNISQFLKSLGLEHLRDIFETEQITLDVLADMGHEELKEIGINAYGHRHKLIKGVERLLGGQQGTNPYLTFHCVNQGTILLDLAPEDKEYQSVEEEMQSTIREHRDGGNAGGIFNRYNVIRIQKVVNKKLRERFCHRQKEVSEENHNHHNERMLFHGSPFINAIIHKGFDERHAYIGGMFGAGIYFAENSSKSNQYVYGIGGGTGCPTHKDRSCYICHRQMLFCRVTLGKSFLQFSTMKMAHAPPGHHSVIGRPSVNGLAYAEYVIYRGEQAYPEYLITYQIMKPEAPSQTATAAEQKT
# procedure.summary: Inhibition of recombinant human N-terminal GST-tagged TNKS1 (1001 to 1327 residues) expressed in baculovirus infected sf9 cells using TACS-Sapphire as substrate measured after 30 mins by colorimetric assay
parameter.measured: IC50

Cc1cccc2c(=O)[nH]c(CCC(=O)O)nc12 ... > 100 µM
O=C(O)CCc1nc(O)c2ccccc2n1 ... > 100 µM

With those in mind, consider the next compound.
May I ask what IC50 has been recorded for "Nc1ccc(C(=O)Nc2cccc3cccnc23)cc1" ?
> 100 µM
